# measured.target: CDK7/cyclinH/MAT1 complex (Homo sapiens)
# measurement.description: In-vitro enzymatic inhibitory activity testing, CDK7 inhibition assay (Caliper EZ Reader II)
# condition.summary: CDK7/cyclinH/MAT1 6 nM, 180 min at 27° C.
measured.quantity: IC50

Asked: Looking for the measured IC50 of CCCC[C@H](CO)Nc1ncc(C(F)(F)F)c(-c2c[nH]c3c(P(C)(C)=O)cccc23)n1 , can you help?
Given back: 20 to 200 nM

Asked: Looking for the measured IC50 of CP(C)(=O)c1cccc2c(-c3nc(NCC(F)(F)CO)ncc3C(F)(F)F)c[nH]c12 , can you help?
Given back: < 20 nM

Asked: Looking for the measured IC50 of C[C@@H](CO)Nc1ncc(C(F)(F)F)c(-c2c[nH]c3c(P(C)(C)=O)cccc23)n1 , can you help?
Given back: < 20 nM

Asked: Looking for the measured IC50 of CC(O)[C@H](C)Nc1ncc(C(F)(F)F)c(-c2c[nH]c3c(P(C)(C)=O)cccc23)n1 (single isomer, unassigned) [Compound 130] , can you help?
Given back: < 20 nM

Asked: Looking for the measured IC50 of FC(F)(F)c1cnc(N[C@@H]2CCC23CNC3)nc1-c1c[nH]c2nc(N3CCOCC3)ccc12 , can you help?
Given back: < 20 nM

Asked: Looking for the measured IC50 of CP(C)(=O)c1cccc2c(-c3nc(N[C@@H]4CC(F)(F)C[C@H]4O)ncc3C(F)(F)F)c[nH]c12 (relative stereo) , can you help?
Given back: < 20 nM

Asked: Looking for the measured IC50 of CC1(C)COCC(Nc2ncc(C(F)(F)F)c(-c3c[nH]c4nc(C#N)ccc34)n2)CN1 (stereo not shown) [Compound 62] , can you help?
Given back: 20 to 200 nM

###

# measured.target: CDK7/cyclinH/MAT1 complex (Homo sapiens, UniProt P50613)
# Sequence (P50613 whole entry, species assumed): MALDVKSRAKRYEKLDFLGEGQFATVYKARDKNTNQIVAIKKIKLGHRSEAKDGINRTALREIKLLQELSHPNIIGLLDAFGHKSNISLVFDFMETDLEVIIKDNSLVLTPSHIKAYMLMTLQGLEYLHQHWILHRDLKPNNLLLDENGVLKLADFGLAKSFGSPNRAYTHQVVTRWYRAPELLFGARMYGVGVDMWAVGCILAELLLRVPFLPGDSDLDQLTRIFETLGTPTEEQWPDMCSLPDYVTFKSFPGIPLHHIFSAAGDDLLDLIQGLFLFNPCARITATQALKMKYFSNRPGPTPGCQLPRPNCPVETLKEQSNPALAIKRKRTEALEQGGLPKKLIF
# Sequence (P51946 whole entry partner, species assumed): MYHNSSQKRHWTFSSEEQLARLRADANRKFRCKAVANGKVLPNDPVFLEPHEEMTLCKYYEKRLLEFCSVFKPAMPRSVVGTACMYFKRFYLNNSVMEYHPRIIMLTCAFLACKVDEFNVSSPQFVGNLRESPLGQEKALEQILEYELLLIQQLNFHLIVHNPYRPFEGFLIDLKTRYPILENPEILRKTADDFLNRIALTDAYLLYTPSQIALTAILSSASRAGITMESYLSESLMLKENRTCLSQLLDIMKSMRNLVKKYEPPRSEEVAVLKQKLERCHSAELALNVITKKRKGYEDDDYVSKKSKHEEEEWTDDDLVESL
# Sequence (P51948 whole entry partner, species assumed): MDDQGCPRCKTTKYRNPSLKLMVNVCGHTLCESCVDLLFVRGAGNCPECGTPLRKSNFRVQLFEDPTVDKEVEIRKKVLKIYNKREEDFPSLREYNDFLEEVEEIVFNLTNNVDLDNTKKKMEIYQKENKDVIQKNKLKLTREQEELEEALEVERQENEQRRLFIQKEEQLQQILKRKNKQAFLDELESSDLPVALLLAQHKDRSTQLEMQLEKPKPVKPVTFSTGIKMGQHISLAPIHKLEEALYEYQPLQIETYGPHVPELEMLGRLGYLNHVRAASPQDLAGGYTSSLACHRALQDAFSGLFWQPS
# measurement.description: In-vitro enzymatic inhibitory activity testing, CDK7 inhibition assay (Caliper EZ Reader II)
# condition.summary: CDK7/cyclinH/MAT1 6 nM, 180 min at 27° C.
What IC50 was measured for each of the following?

Asked: Looking for the measured IC50 of CP(C)(=O)c1cccc2c(-c3nc(NC4(CO)CCOCC4)ncc3C(F)(F)F)c[nH]c12 , can you help?
Given back: 20 to 200 nM

Asked: Looking for the measured IC50 of CP(C)(=O)c1cccc2c(-c3nc(N[C@H]4CCCC[C@@H]4O)ncc3C(F)(F)F)c[nH]c12 , can you help?
Given back: 20 to 200 nM

Asked: Looking for the measured IC50 of N#Cc1ccc2c(-c3nc(N[C@@H]4CCC45CNC5)ncc3C(F)(F)F)c[nH]c2n1 , can you help?
Given back: < 20 nM

Asked: Looking for the measured IC50 of CC(CO)CNc1ncc(C(F)(F)F)c(-c2c[nH]c3c(P(C)(C)=O)cccc23)n1 (single isomer, unassigned) [Compound 149] , can you help?
Given back: < 20 nM

Asked: Looking for the measured IC50 of CC[C@@H](CO)Nc1ncc(C(F)(F)F)c(-c2c[nH]c3c(P(C)(C)=O)cccc23)n1 , can you help?
Given back: < 20 nM

Asked: Looking for the measured IC50 of CP(C)(=O)c1cccc2c(-c3nc(NC45CC(O)(C4)C5)ncc3C(F)(F)F)c[nH]c12 , can you help?
Given back: < 20 nM

Asked: Looking for the measured IC50 of CP(C)(=O)c1cccc2c(-c3nc(NCC4(O)CC4)ncc3C(F)(F)F)c[nH]c12 , can you help?
Given back: < 20 nM

Asked: Looking for the measured IC50 of FC(F)(F)c1cnc(NC2CCCC3(CCCN3)C2)nc1-c1c[nH]c2nc(N3CCOCC3)ccc12 (stereo not drawn) , can you help?
Given back: 20 to 200 nM

Asked: Looking for the measured IC50 of CP(C)(=O)c1cccc2c(-c3nc(NCC4(O)CCOC4)ncc3C(F)(F)F)c[nH]c12 (single isomer, unassigned) [Compound 121] , can you help?
Given back: 20 to 200 nM

Asked: Looking for the measured IC50 of CC(C)(O)CNc1ncc(C(F)(F)F)c(-c2c[nH]c3c(P(C)(C)=O)cccc23)n1 , can you help?
Given back: < 20 nM

Asked: Looking for the measured IC50 of CP(C)(=O)c1cccc2c(-c3nc(N[C@H]4CCC[C@@H]4O)ncc3C(F)(F)F)c[nH]c12 , can you help?
Given back: < 20 nM

Asked: Looking for the measured IC50 of Cc1noc(C)c1-c1ccc2c(-c3nc(NC4CCC5(CCNC5)C4)ncc3C(F)(F)F)c[nH]c2n1 (stereo not drawn) , can you help?
Given back: < 20 nM

Asked: Looking for the measured IC50 of CP(C)(=O)c1cccc2c(-c3nc(NC4CC(F)(F)CC4O)ncc3C(F)(F)F)c[nH]c12 (single isomer, unassigned) [Compound 192] , can you help?
Given back: 20 to 200 nM

Asked: Looking for the measured IC50 of FC(F)(F)c1cnc(NC2CCC23CCNC3)nc1-c1c[nH]c2nc(N3CCOCC3)ccc12 (stereo not drawn) , can you help?
Given back: 20 to 200 nM

Asked: Looking for the measured IC50 of CP(C)(=O)c1cccc2c(-c3nc(NC[C@H](F)CO)ncc3C(F)(F)F)c[nH]c12 , can you help?
Given back: < 20 nM

###

What pIC50 was measured for each of the following?
# measured.target: CDK2/cyclinE1 complex (Homo sapiens, UniProt P24941)
# measurement.description: In-vitro enzymatic inhibitory activity testing, CDK2 inhibition assay (Caliper EZ Reader II)
# condition.summary: CDK2/cyclinE1 0.5 nM, 180 min at 27° C.
pIC50: −log10 of the molar value.

Asked: Looking for the measured pIC50 of C[C@@H](CO)Nc1ncc(C(F)(F)F)c(-c2c[nH]c3c(P(C)(C)=O)cccc23)n1 , can you help?
Given back: 5.30 to 6.70

Asked: Looking for the measured pIC50 of CP(C)(=O)c1cccc2c(-c3nc(N[C@@H]4CC[C@@]5(CCNC5)C4)ncc3C(F)(F)F)c[nH]c12 , can you help?
Given back: 5.30 to 6.70

Asked: Looking for the measured pIC50 of CN(C)[C@H]1CC[C@H](Nc2ncc(C(F)(F)F)c(-c3c[nH]c4c(P(C)(C)=O)cccc34)n2)C1 , can you help?
Given back: 5.30 to 6.70

Asked: Looking for the measured pIC50 of CP(C)(=O)c1cccc2c(-c3nc(NC4(CO)CCOC4)ncc3C(F)(F)F)c[nH]c12 (single isomer, unassigned) [Compound 119] , can you help?
Given back: 4.30 to 5.30

Asked: Looking for the measured pIC50 of CP(C)(=O)c1cccc2c(-c3nc(NCC(O)C(F)F)ncc3C(F)(F)F)c[nH]c12 (single isomer, unassigned) [Compound 125] , can you help?
Given back: 4.30 to 5.30

Asked: Looking for the measured pIC50 of COc1ccc2c(-c3nc(N[C@@H](C)CO)ncc3C(F)(F)F)c[nH]c2c1P(C)(C)=O , can you help?
Given back: 5.30 to 6.70

Asked: Looking for the measured pIC50 of CP(C)(=O)c1cccc2c(-c3nc(NCC4CC4CO)ncc3C(F)(F)F)c[nH]c12 (single isomer, unassigned) [Compound 144] , can you help?
Given back: 4.30 to 5.30

Asked: Looking for the measured pIC50 of CP(C)(=O)c1cccc2c(-c3nc(NC[C@H]4C[C@H]4CO)ncc3C(F)(F)F)c[nH]c12 , can you help?
Given back: 5.30 to 6.70

Asked: Looking for the measured pIC50 of CN(C)[C@H]1CC[C@H](Nc2ncc(C(F)(F)F)c(-c3c[nH]c4nc(C#N)ccc34)n2)C1 , can you help?
Given back: 5.30 to 6.70

Asked: Looking for the measured pIC50 of FC(F)(F)c1cnc(NC2CCC23CNC3)nc1-c1c[nH]c2nc(N3CCOCC3)ccc12 (centres unmarked) , can you help?
Given back: 4.30 to 5.30

Asked: Looking for the measured pIC50 of CP(C)(=O)c1cccc2c(-c3nc(NC4CC45CCNC5)ncc3C(F)(F)F)c[nH]c12 (single isomer, unassigned) [Compound 110] , can you help?
Given back: 4.30 to 5.30

Asked: Looking for the measured pIC50 of FC(F)(F)c1cnc(NC2CCCNCC2)nc1-c1c[nH]c2nc(N3CCOCC3)ccc12 (single isomer, unassigned) [Compound 48] , can you help?
Given back: 5.30 to 6.70

Asked: Looking for the measured pIC50 of FC(F)(F)c1cnc(NC2CCC3CNCC32)nc1-c1c[nH]c2nc(N3CCOCC3)ccc12 (single isomer, unassigned) [Compound 56] , can you help?
Given back: < 4.30

Asked: Looking for the measured pIC50 of CP(C)(=O)c1cccc2c(-c3nc(NC[C@H]4C[C@](C)(O)C4)ncc3C(F)(F)F)c[nH]c12 , can you help?
Given back: 5.30 to 6.70

###

What IC50 was measured for each of the following?
# measured.target: CDK7/cyclinH/MAT1 complex (Homo sapiens, UniProt P50613)
# measurement.description: In-vitro enzymatic inhibitory activity testing, CDK7 inhibition assay (Caliper EZ Reader II)
# condition.summary: CDK7/cyclinH/MAT1 6 nM, 180 min at 27° C.

Asked: Looking for the measured IC50 of FC(F)(F)c1cnc(N[C@@H]2CCC[C@@H]3CNC[C@@H]32)nc1-c1c[nH]c2nc(N3CCOCC3)ccc12 , can you help?
Given back: 20 to 200 nM

Asked: Looking for the measured IC50 of C[C@@H](CO)Nc1ncc(C(N)=O)c(-c2c[nH]c3c(P(C)(C)=O)cccc23)n1 , can you help?
Given back: 5000 to 50000 nM

Asked: Looking for the measured IC50 of FC(F)(F)c1cnc(NC2CCC3CNCC32)nc1-c1c[nH]c2nc(N3CCOCC3)ccc12 (single isomer, unassigned) [Compound 57] , can you help?
Given back: 200 to 5000 nM

Asked: Looking for the measured IC50 of N#Cc1ccc2c(-c3nc(N[C@H]4CC[C@H](N)C4)ncc3C(F)(F)F)c[nH]c2n1 , can you help?
Given back: < 20 nM

Asked: Looking for the measured IC50 of CP(C)(=O)c1c(C#N)ccc2c(-c3nc(N[C@@H]4CCC45CNC5)ncc3C(F)(F)F)c[nH]c12 , can you help?
Given back: 20 to 200 nM

Asked: Looking for the measured IC50 of CC1([C@@H](CO)Nc2ncc(C(F)(F)F)c(-c3c[nH]c4c(P(C)(C)=O)cccc34)n2)CC1 , can you help?
Given back: 20 to 200 nM

Asked: Looking for the measured IC50 of CP(C)(=O)c1cccc2c(-c3nc(NC4CC45CCNC5)ncc3C(F)(F)F)c[nH]c12 (single isomer, unassigned) [Compound 108] , can you help?
Given back: < 20 nM

Asked: Looking for the measured IC50 of CP(C)(=O)c1cccc2c(-c3nc(NC4CC45CCNC5)ncc3C(F)(F)F)c[nH]c12 (single isomer, unassigned) [Compound 111] , can you help?
Given back: 20 to 200 nM

Asked: Looking for the measured IC50 of FC(F)(F)c1cnc(NC2CCC3(CCNC3)C2)nc1-c1c[nH]c2nc(N3CCOCC3)ccc12 (centres unmarked) , can you help?
Given back: 20 to 200 nM

Asked: Looking for the measured IC50 of CP(C)(=O)c1cccc2c(-c3nc(Nc4cn[nH]c4)ncc3C(F)(F)F)c[nH]c12 , can you help?
Given back: < 20 nM

Asked: Looking for the measured IC50 of CP(C)(=O)c1cccc2c(-c3nc(NC4(CO)CCC4)ncc3C(F)(F)F)c[nH]c12 , can you help?
Given back: < 20 nM

Asked: Looking for the measured IC50 of FC(F)(F)c1cnc(N[C@H]2CCCNC2)nc1-c1c[nH]c2cc(N3CCCC3)ccc12 [Compound 101, reference compound] , can you help?
Given back: 20 to 200 nM

Asked: Looking for the measured IC50 of CP(C)(=O)c1cccc2c(-c3nc(NC4CC(F)(F)CC4O)ncc3C(F)(F)F)c[nH]c12 (single isomer, unassigned) [Compound 190] , can you help?
Given back: 20 to 200 nM

Asked: Looking for the measured IC50 of CC1(C)COCC(Nc2ncc(C(F)(F)F)c(-c3c[nH]c4c(P(C)(C)=O)c(C#N)ccc34)n2)CN1 (centres unmarked) , can you help?
Given back: 20 to 200 nM
